Origin of the recorded values: patent US6555124B1

- Test summary: in vitro
- Test settings: human, Caco-2, pH 6
Quantity measured: Papp A→B at 24 h
// return the numeric value with its unit appended

Incoming: Indicate the recorded Papp A→B at 24 h value for this compound: N=C(N)c1ccc(CNC(=O)[C@@H]2CCCN2C(=O)[C@H](NCC(=O)O)C2CCCCC2)cn1
Outgoing: 0.56 ×10⁻⁶ cm/s
